Source: patent US20240180886A1

Tested on: B16-F10 cells
Assay: Cell proliferation assay (CellTiter-Glo) in B16-F10 cells with IFN-gamma
Assay type: cell-based
Details: 120 h, mouse IFN-gamma 10 ng/mL, read-out: PTPN2 Prolif 5d B16F10 EC50
// NB: equality with 5 µM counts as not satisfied; only EC50 strictly below is satisfied

Some entries whose results are on file:
O=C1CN(c2c(O)cc(CNc3cccc(OC(F)F)n3)cc2F)S(=O)(=O)N1 ... not satisfied
COc1cc(C)cc(NCc2cc(O)c(N3CC(=O)NS3(=O)=O)c(F)c2)n1 ... satisfied
O=C1CN(c2c(O)cc(CNc3cc(OCc4ccccc4)ccn3)cc2F)S(=O)(=O)N1 ... satisfied
CCc1ccnc(NCc2cc(O)c(N3CC(=O)NS3(=O)=O)c(F)c2)c1 ... satisfied

Request: Report whether reported EC50 is lower than 5 µM (strictly) for Cc1cccnc1NCc1cc(O)c(N2CC(=O)NS2(=O)=O)c(F)c1
Result: not satisfied

Request: Check if EC50 falls below 5 µM for Cc1cnc(NCc2cc(O)c(N3CC(=O)NS3(=O)=O)c(F)c2)c(C)c1 .
Result: satisfied

Request: Given the entry O=C1CN(c2c(O)cc(CNc3ccc(OCc4ccccc4)cn3)cc2F)S(=O)(=O)N1 , would its reported EC50 be below 5 µM?
Result: not satisfied

Request: Is it true that EC50 reported for Cc1cc(NCc2cc(O)c(N3CC(=O)NS3(=O)=O)c(F)c2)ncc1C#N is less than 5 µM?
Result: satisfied
